# experimentalSystem: Cst6 (UniProt P40535)
# Sequence (P40535 whole entry): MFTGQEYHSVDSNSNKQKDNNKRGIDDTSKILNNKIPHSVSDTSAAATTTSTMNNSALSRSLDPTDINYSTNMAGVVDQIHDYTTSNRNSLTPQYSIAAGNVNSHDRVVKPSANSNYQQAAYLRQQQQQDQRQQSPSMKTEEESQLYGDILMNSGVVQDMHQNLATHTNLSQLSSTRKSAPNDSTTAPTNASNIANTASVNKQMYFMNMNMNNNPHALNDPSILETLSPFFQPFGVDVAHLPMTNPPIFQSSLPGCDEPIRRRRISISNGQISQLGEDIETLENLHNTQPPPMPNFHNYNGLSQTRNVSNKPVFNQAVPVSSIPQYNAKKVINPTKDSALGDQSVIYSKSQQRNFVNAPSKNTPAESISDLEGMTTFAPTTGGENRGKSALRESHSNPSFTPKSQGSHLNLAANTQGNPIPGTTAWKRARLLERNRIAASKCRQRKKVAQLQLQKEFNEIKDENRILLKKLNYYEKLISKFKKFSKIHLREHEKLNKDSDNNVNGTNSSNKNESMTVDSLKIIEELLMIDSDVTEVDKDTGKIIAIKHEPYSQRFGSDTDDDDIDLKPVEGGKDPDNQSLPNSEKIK
# measurementNotes: PBM E-score (8-mer binding enrichment) (E-score (-0.5 to 0.5)); higher = stronger / more preferred TF binding
# measurementConditions: protein concentration: 200 nM; construct: GST-DNA-binding domain
Over roughly 33,000 sequences, “E-score (-0.5 to 0.5)” has its median near -0.016; the highest 2% begin near 0.31. The sample holds the highest values, similar sequences and a random draw of the others, so the mix is not that of the screen.
testReadout: PBM E-score
Answer with a bare number; do not write a unit.

Illustrative cases are given below, each with its answer.
AAAATGAT
0.298
AGTGAGAA
0.149
AACATCAT
0.378
CTAATGGA
-0.085
GTCATCAC
0.409

So what does the record say about PBM E-score for `ACGCGAGG` ?
0.0628

So what does the record say about PBM E-score for `AACATCAC` ?
0.295

So what does the record say about PBM E-score for `AAAATGAA` ?
0.155

The reported numbers originate from the supplement of paper PMC3334620.
